A collection of molecules and their measured FMC63 Binding Score
# System: FMC63
# Sequence (as listed by the source): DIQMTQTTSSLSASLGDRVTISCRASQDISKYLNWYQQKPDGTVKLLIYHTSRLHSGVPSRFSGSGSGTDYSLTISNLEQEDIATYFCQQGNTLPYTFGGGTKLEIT
# Sequence (as listed by the source): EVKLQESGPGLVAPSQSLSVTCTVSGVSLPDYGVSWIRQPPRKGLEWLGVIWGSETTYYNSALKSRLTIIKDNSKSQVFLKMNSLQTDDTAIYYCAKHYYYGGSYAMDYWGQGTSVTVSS
# procedureSummary: CD19 variant binding to anti-CD19 antibody FMC63 (score)
# conditions: Table 1A, CD19 single mutants (positions of SEQ ID NO:2)

| molecule | FMC63 Binding Score |
| --- | --- |
| G226T: CD19 variant (protein) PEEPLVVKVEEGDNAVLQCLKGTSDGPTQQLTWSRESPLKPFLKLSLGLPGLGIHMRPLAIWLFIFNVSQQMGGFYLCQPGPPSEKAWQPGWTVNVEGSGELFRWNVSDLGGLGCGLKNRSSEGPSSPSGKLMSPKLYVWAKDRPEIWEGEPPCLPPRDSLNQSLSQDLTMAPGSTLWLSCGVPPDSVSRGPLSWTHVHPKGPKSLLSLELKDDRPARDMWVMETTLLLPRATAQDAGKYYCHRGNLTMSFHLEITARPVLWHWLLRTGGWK | 7.3 ± .6 |
| L20G: CD19 variant (protein) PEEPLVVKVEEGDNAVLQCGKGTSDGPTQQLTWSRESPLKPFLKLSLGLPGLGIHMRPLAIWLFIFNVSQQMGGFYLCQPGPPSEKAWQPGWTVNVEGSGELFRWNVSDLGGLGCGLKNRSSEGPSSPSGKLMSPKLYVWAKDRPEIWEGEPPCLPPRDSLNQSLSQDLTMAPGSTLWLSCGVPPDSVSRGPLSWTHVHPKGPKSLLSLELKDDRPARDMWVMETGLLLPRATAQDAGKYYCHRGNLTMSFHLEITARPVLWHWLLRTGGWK | 5.7 ± .2 |
| V260R: CD19 variant (protein) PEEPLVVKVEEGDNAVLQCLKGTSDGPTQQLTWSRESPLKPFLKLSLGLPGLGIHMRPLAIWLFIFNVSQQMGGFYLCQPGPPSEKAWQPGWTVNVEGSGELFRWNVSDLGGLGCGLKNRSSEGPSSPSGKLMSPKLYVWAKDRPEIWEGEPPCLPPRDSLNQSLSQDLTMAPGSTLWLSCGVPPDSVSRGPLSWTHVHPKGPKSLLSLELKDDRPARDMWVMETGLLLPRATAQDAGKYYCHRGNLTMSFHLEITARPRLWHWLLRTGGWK | 6.7 ± .3 |
| R57G: CD19 variant (protein) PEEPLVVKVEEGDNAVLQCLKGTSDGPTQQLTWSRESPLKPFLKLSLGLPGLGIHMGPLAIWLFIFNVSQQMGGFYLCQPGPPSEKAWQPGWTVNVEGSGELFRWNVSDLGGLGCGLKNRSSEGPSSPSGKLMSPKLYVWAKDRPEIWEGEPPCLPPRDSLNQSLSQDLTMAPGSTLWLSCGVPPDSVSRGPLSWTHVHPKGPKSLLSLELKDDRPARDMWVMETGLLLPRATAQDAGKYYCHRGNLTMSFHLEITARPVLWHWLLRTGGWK | 5.7 ± .2 |

Recorded values, source patent US20220387487A1.
